Recorded pKd by entry
Target: T1, human CD47 protein, His Tag (ACRObiosystems, Cat. No. CD7-H5227) (human, UniProt Q08722 19-139)
T1 construct: bought reagent; also called CD47-His; hCD47-His Tag; not shown: His tag
T1 sequence (Q08722 19-139 limits assumed): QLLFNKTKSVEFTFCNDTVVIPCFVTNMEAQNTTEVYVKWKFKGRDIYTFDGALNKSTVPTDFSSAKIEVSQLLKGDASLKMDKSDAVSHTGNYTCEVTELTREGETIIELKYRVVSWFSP
Assay: Biacore SPR, 25 C, antibody captured on CM5 chip
pKd: −log10 of the molar value.
Attribute Measured: pKd

[[record]]
binder = "hz3F10-4.1 (antibody, human IgG4 S228P, kappa, V domains shown, humanized 3F10, full-length heavy and light chains) VH: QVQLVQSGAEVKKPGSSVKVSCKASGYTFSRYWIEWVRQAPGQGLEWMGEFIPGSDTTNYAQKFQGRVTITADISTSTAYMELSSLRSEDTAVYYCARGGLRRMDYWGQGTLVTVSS VL: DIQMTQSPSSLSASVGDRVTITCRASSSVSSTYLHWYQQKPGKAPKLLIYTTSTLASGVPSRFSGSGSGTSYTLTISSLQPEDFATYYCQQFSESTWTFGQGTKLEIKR"
test_result = 8.85

[[record]]
binder = "hz3F10-2.1 (antibody, human IgG4 S228P, kappa, V domains shown, humanized 3F10, full-length heavy and light chains) VH: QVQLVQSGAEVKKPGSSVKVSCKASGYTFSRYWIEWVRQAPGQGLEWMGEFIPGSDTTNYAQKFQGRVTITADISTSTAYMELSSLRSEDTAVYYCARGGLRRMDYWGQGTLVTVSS VL: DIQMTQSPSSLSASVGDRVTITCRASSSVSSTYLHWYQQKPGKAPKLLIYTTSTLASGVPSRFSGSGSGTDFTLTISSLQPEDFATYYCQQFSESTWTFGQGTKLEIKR"
test_result = 9.08

[[record]]
binder = "hz3F10-5.1 (antibody, human IgG4 S228P, kappa, V domains shown, humanized 3F10, full-length heavy and light chains) VH: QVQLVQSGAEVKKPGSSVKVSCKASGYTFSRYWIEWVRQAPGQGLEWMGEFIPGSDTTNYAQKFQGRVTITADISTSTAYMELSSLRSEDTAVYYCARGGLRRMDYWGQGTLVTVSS VL: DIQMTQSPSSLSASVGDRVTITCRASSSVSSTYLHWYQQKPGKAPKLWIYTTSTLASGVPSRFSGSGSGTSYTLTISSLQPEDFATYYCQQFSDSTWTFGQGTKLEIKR"
test_result = 9.02

